- Test system: Rattus norvegicus
- assayComment: Ulcerogenic activity in albino rat assessed as hyperemia at 300 mg/kg/day administered as equal doses at 0 and 12 hrs for three consecutive days measured at 6 hrs post last dose
- Format: toxicity, organism-based
- conditionInfo: in vivo
Examples of compounds with documented Activity follow.
reportedProperty: Activity (%)

COc1ccc2c(c1)c(CC(=O)O)c(C)n2C(=O)c1ccc(Cl)cc1	100
Cc1c(C(N)=O)sc2c1c(=O)n(Cc1ccccc1)c1n[nH]c(=S)n21	10

---

- assayComment: Ulcerogenic activity in po dosed albino rat measured after 24 hrs
- Format: toxicity, organism-based
- conditionInfo: in vivo
reportedProperty: LD50 at 24 h

Cc1c(C(N)=O)sc2nc(NN)n(Cc3ccccc3)c(=O)c12	> 300 mg/kg
CC1=NN(c2nc3sc(C(N)=O)c(C)c3c(=O)n2Cc2ccccc2)C(=O)C1	> 300 mg/kg
Cc1c(C(N)=O)sc2c1c(=O)n(Cc1ccccc1)c1n[nH]c(=S)n21	> 300 mg/kg
CCOC(=O)CSc1nnc2n(Cc3ccccc3)c(=O)c3c(C)c(C(N)=O)sc3n12	> 300 mg/kg
Cc1c(C(N)=O)sc2nc(-n3nc(-c4ccc(Cl)cc4)cc3N)n(Cc3ccccc3)c(=O)c12	> 300 mg/kg
Cc1c(C(N)=O)sc2c1c(=O)n(Cc1ccccc1)c1n[nH]c(=O)n21	> 300 mg/kg
